Tested on: NCI-H322M lung
ASSAY OVERVIEW: NCI-60 one-dose screen, 48 h
RUN PARAMETERS: 10 µM unless noted
This is part of a sample that, as a whole, favours compounds with a hit. Of some 83,000 tested, about 20% had one in any assay. The source made the active and inactive calls. How the source made its calls: active means growth percent below 10; inactive means the rest.
Entry note: the call must match one of active, inactive

Query block: In this assay, the call recorded for S=c1nc(CS)[nH]c2ccccc12 was what?
Result block: inactive

Query block: In this assay, the call recorded for Cn1cc(-c2csc(-c3c[nH]c4ccc(F)cc34)n2)c2cnccc21 was what?
Result block: inactive

Query block: In this assay, the call recorded for Clc1ccc2c(c1)N(c1ncnc3ccc(-c4cnc5[nH]ccc5c4)cc13)CC2 was what?
Result block: inactive

Query block: In this assay, the call recorded for Cc1ccc2[nH]c(=S)[nH]c(=O)c2c1 was what?
Result block: inactive

Query block: In this assay, the call recorded for COc1ccc(-c2cc(-c3cccc(Cl)c3)c(C#N)c(=O)[nH]2)c(OC)c1 was what?
Result block: inactive

Query block: In this assay, the call recorded for CCn1cc(C(=O)NN=C2CCCC2)c(=O)c2ccc(C)nc21 was what?
Result block: inactive

Query block: In this assay, the call recorded for C=C(C)[C@@H]1CC[C@]2(C(=O)O)CC[C@]3(C)[C@H](CC[C@@H]4[C@@]5(C)CCC(N)C(C)(C)[C@@H]5CC[C@]43C)[C@@H]12 (stereo partly specified) was what?
Result block: inactive

Query block: In this assay, the call recorded for COc1ccc(Oc2nc(Nc3ccc(N4CCOCC4)cc3)ncc2NC(=O)c2cc(OC)cc(OC)c2)cc1 was what?
Result block: inactive

Query block: In this assay, the call recorded for O=S(=O)(Nc1cc(Sc2cccc3cccnc23)c(O)c2ccccc12)c1ccc(F)cc1 was what?
Result block: inactive

Query block: In this assay, the call recorded for C#CCOc1cccc(Nc2ncc3ncn(C4CCN(C(=O)CCl)C4)c3n2)c1 (stereo unspecified) was what?
Result block: inactive

Query block: In this assay, the call recorded for COc1ccc(C/C(C)=C(/c2ccc(OCCN3CCCC3)cc2)c2ccc(OC(=O)NCc3ccccc3)cc2)cc1 was what?
Result block: inactive

Query block: In this assay, the call recorded for CCCn1nc(C(=O)N2CCCCC2)c2c1CCC(N1CCC(c3ccncc3)CC1)C2 (stereo unspecified) was what?
Result block: inactive

Query block: In this assay, the call recorded for O=C1Nc2ccccc2/C1=C/c1cccn1CCCCCn1c2ccccc2c(=O)c2ccccc21 was what?
Result block: inactive

Query block: In this assay, the call recorded for Cn1c(=O)c2c(nc(Nc3cc(=O)[nH]c(=O)[nH]3)n2Cc2ccccc2)n(C)c1=O was what?
Result block: inactive

Query block: In this assay, the call recorded for Nc1ccc(/C=N/Nc2ccnc3c(N)cccc23)c2cccnc12 was what?
Result block: active

Query block: In this assay, the call recorded for Cc1ccccc1SSc1ccccc1C was what?
Result block: inactive

Query block: In this assay, the call recorded for COc1nc2ccc(C)cc2cc1/C=[N+](\[O-])c1ccccc1 was what?
Result block: inactive

Query block: In this assay, the call recorded for CCNC(=O)Oc1ccc(/C(=C(/C)Cc2ccc(OC)cc2)c2ccc(OCCN(CC)CC)cc2)cc1 was what?
Result block: inactive

Query block: In this assay, the call recorded for COc1cc(CO)cc2cc3ccccc3nc12 was what?
Result block: inactive

Query block: In this assay, the call recorded for COc1cc(OC)cc(-c2ccc(-c3ccc(C(=N)N)cn3)s2)c1 was what?
Result block: inactive

Query block: In this assay, the call recorded for COc1cc2nc3cc([N+](=O)[O-])ccc3c(NCCNCC(C)(C)O)c2cc1OC was what?
Result block: active

---

Test system: NCI-H23 lung
ASSAY OVERVIEW: NCI-60 one-dose screen, 48 h (100 = growth as untreated, 0 = no growth, -100 = all killed)
RUN PARAMETERS: 10 µM unless noted
Compounds without any hit were thinned out: in the full panel of roughly 83,000, 20% have a hit.
QUANTITY KIND: growth (%)
All answers are understood in %, so give the number only.

Query block: Test system NCI-H23 lung; read-out growth; what value for C=C(CNCCO)[C@@H]1CC[C@]2(CO)CC[C@]3(C)[C@H](CC[C@@H]4[C@@]5(C)CCC(NCCc6ccc(O)cc6)C(C)(C)[C@@H]5CC[C@]43C)[C@@H]12 (some centres undefined) ?
Result block: -63

Query block: Test system NCI-H23 lung; read-out growth; what value for Clc1nccc2c(-c3csc(-c4c[nH]c5ccc(Br)cc45)n3)c[nH]c12 ?
Result block: 31.9

Query block: Test system NCI-H23 lung; read-out growth; what value for Nc1n[nH]c2cccc(C#Cc3cccc(C(=O)Nc4ccc(CN5CCOCC5)c(C(F)(F)F)c4)c3)c12 ?
Result block: 33.6

Query block: Test system NCI-H23 lung; read-out growth; what value for COC(=O)N/N=C/c1c[n+]([O-])c2ccccc2[n+]1[O-] ?
Result block: 98.6

Query block: Test system NCI-H23 lung; read-out growth; what value for O=C(Cn1cc(CN2CCN(c3ccnc4cc(Cl)ccc34)CC2)nn1)Nc1cccc([N+](=O)[O-])c1 ?
Result block: 99.1

Query block: Test system NCI-H23 lung; read-out growth; what value for Oc1ccccc1C=Nc1ccc(N2CCN(c3ccccc3)CC2)cc1 ?
Result block: 93.4

Query block: Test system NCI-H23 lung; read-out growth; what value for CC1(Cc2ccccc2)CC2=C(C(=O)O1)C(c1ccccc1)NC(=O)N2 (centres undefined) ?
Result block: 100

Query block: Test system NCI-H23 lung; read-out growth; what value for Cn1ccnc1CN1CCSC(C(=O)Nc2ccccc2)C1 (centres undefined) ?
Result block: 101

Query block: Test system NCI-H23 lung; read-out growth; what value for COC(=O)[C@H]1Cc2c([nH]c3ccccc23)[C@@H](c2cccs2)N1 ?
Result block: 104

---

System: DU-145 prostate
ASSAY OVERVIEW: NCI-60 one-dose screen, 48 h
RUN PARAMETERS: 10 µM unless noted
Compounds without any hit were thinned out: in the full panel of roughly 83,000, 20% have a hit. Activity calls are given as the source filed them. How the source made its calls: active means growth percent below 10; inactive means the rest.
Entry note: the call must match one of active, inactive

Query block: In this assay, the call recorded for Cn1cc(C2=C(c3cccc4ccccc34)C(=O)NC2=O)c2cc(Br)ccc21 was what?
Result block: inactive

Query block: In this assay, the call recorded for COc1ccc(-c2csc(NC(=O)CN3CCN(CCO)CC3)n2)cc1NS(=O)(=O)c1cccc2c(N(C)C)cccc12 was what?
Result block: inactive

Query block: In this assay, the call recorded for Cn1cc(-c2nonc2-c2cn(C)c3ccc(Br)cc23)c2ccccc21 was what?
Result block: inactive

Query block: In this assay, the call recorded for CCCNNC(=O)/C=C/c1ccc(CNCCc2c(C)[nH]c3ccccc23)cc1 was what?
Result block: inactive

Query block: In this assay, the call recorded for O=C1CCCCN1CCCCC#Cc1cccc(C#Cc2cccnc2)c1 was what?
Result block: inactive

Query block: In this assay, the call recorded for O=S(=O)(Nc1ccc(F)cc1)c1ccc(-c2cnc(C3CC3)o2)cc1 was what?
Result block: inactive

Query block: In this assay, the call recorded for COC(=O)c1nc(-c2ccccc2)oc1S(=O)(=O)N(C)CCO was what?
Result block: inactive

Query block: In this assay, the call recorded for O=C(N=Nc1c(O)[nH]c2ccccc12)Nc1ccc(Br)cc1 was what?
Result block: inactive

Query block: In this assay, the call recorded for CCOC(=O)c1cc2c(n1Cc1cc(OC)cc(OC)c1Br)-c1nc(NC(C)=O)sc1CCC2 was what?
Result block: inactive

Query block: In this assay, the call recorded for COC1=CC(c2ccc[nH]2)=N/C1=C\c1[nH]c(C)c(C(=O)Oc2ccccc2)c1C was what?
Result block: active

Query block: In this assay, the call recorded for C#CCOCC1CN(C)C(=O)O1 (stereo not given) was what?
Result block: inactive

Query block: In this assay, the call recorded for FC(F)(F)Sc1ccc(/C=C/c2cc(/C=C/c3ccc(SC(F)(F)F)cc3)n(-c3ccccc3)n2)cc1 was what?
Result block: inactive

Query block: In this assay, the call recorded for CCNC(=O)Nc1ncccc1OCc1ccc(F)cc1 was what?
Result block: inactive

Query block: In this assay, the call recorded for COc1c(O)c(O)cc2c3c(oc12)CC(c1ccc2c(c1)OCO2)CC3=O (stereo not given) was what?
Result block: inactive

Query block: In this assay, the call recorded for Cc1c(C(=O)OCCCCOC(=O)c2c(C)n(C)c3scc[n+]23)[n+]2ccsc2n1C was what?
Result block: inactive

Query block: In this assay, the call recorded for Cc1ccc(/C=C2\COc3ccc(O)c(O)c3C2=O)cc1 was what?
Result block: active

Query block: In this assay, the call recorded for CCN(CC)CC#CCOC(=O)[C@]1(C)CCC[C@]2(C)c3ccc(C(C)C)cc3CC[C@@H]12 was what?
Result block: inactive

Query block: In this assay, the call recorded for Cc1c(O)c(O)cc2c3c(oc12)CC(c1ccc2c(c1)OCO2)CC3=O (stereo not given) was what?
Result block: inactive

Query block: In this assay, the call recorded for O=C(c1cccc(Br)c1)N1CCN(c2ccnc3cc(Cl)ccc23)CC1 was what?
Result block: inactive

Query block: In this assay, the call recorded for Cc1nc2sc(C(=O)Nc3cccc(Cl)c3C)c(N)c2cc1C(O)c1ccccc1 (stereo not given) was what?
Result block: inactive

Query block: In this assay, the call recorded for CC1(Cc2ccccc2)CC2=C(C(=O)O1)C(c1ccccc1)NC(=O)N2 (stereo not given) was what?
Result block: inactive

Query block: In this assay, the call recorded for Cc1ccc(NC(=O)N/C(N)=N/c2nc(=O)c3ccccc3s2)cc1 was what?
Result block: inactive

Query block: In this assay, the call recorded for Cc1nn(-c2nc(-c3cc4ccccc4oc3=O)cs2)c(C)c1N=Nc1ccccc1 was what?
Result block: inactive

Query block: In this assay, the call recorded for O=S(=O)(Nc1cc(Sc2cccc3cccnc23)c(O)c2ccccc12)c1ccc(F)cc1 was what?
Result block: active

Query block: In this assay, the call recorded for COc1ccc(/C=C/C(=O)c2cc3c(N)c(C(=O)Nc4ccccc4Cl)sc3nc2C)cc1 was what?
Result block: inactive

Query block: In this assay, the call recorded for CC(=O)N1N=C(c2ccc(Nc3nc(Nc4ccc(F)cc4)nc(Nc4ccc(F)cc4)n3)cc2)CC1c1ccccc1 (stereo not given) was what?
Result block: inactive

Query block: In this assay, the call recorded for CS(=O)(=O)Nc1cc(-c2ccc3ncnc(Nc4ccc(F)c(Cl)c4)c3c2)cnc1Cl was what?
Result block: inactive

Query block: In this assay, the call recorded for Cc1cc2nc(C(Cl)Cl)nc(-c3ccc(Cl)cc3)n2n1 was what?
Result block: active

Query block: In this assay, the call recorded for O=C1C(Nc2ccc(Cl)cc2)=C(I)C(=O)c2ncccc21 was what?
Result block: inactive

Query block: In this assay, the call recorded for COc1cccc(C2C(C#N)=C(N)Oc3cc(OCCCCCC[P+](c4ccccc4)(c4ccccc4)c4ccccc4)ccc32)c1 (stereo not given) was what?
Result block: active

Query block: In this assay, the call recorded for Cc1ccc2nc3ccccc3c(NCc3ccc(Cl)cc3)c2c1 was what?
Result block: inactive

Query block: In this assay, the call recorded for COCCn1cc(-c2csc(-c3cn(C)c4ccc(F)cc34)n2)c2cccnc21 was what?
Result block: inactive

Query block: In this assay, the call recorded for Nc1ncnc2c1C(c1ccc([N+](=O)[O-])cc1)c1sc3c(F)cccc3c1O2 (stereo not given) was what?
Result block: inactive

Query block: In this assay, the call recorded for CCNC(=S)n1nc(SC)c(C(=O)OCC)c1N was what?
Result block: inactive

Query block: In this assay, the call recorded for Cc1ccc(Cl)cc1N1CCN(C(=O)[C@@H]2C[C@@H]2c2ccc(F)cc2)CC1 was what?
Result block: inactive

Query block: In this assay, the call recorded for C=C(CN1CC=CCC1)[C@@H]1CC[C@]2(COC(C)=O)CC[C@]3(C)[C@H](CC[C@@H]4[C@@]5(C)CC[C@H](O)C(C)(C)[C@@H]5CC[C@]43C)[C@@H]12 was what?
Result block: inactive

Query block: In this assay, the call recorded for c1ccc(-c2cc(-c3cc(-c4ccccc4)on3)no2)cc1 was what?
Result block: active

Query block: In this assay, the call recorded for COC(=O)c1nc(-c2ccc(C)cc2)oc1Sc1ccc(C)cc1 was what?
Result block: inactive

Query block: In this assay, the call recorded for COc1cc(-c2nn(-c3cccc(NC(=O)CCN4CCN(C)CC4)c3)cc2-c2ccncc2)ccc1Cl was what?
Result block: active

Query block: In this assay, the call recorded for C=CCN1C=CC(=O)[C@H](O[Si](C)(C)C(C)(C)C)[C@@H]1/C=C/c1ccccc1 was what?
Result block: active
